assay: PK study in male Sprague-Dawley rats dosed once per day for five days, PO 25 mg/kg, 0.5% HPMC (Example 8); assay type: in vivo; details: male, Sprague-Dawley, rat, in vivo, po, 25 mg/kg, after the last of five daily 25 mg/kg PO doses, 0.5% HPMC suspension, read-out: peak plasma concentration (Cmax)
MEASURED PROPERTY: Cmax (ng/mL)
Form entry: value (ng/mL) — number only.

Give the measured Cmax of Cc1cc(Nc2cc(N)ncn2)c(=O)n2c1C(=O)NC21CCC2(CC2)CC1 [4ET-03-053] . 28800

====

experiment: PK study in CD-1 male mice with IV and PO dosing (Example 3); type: in vivo; details: male, CD-1, mouse, in vivo, po, 10 mg/kg, AUClast
MEASURED PROPERTY: AUC(0-t)
Please give the number followed by its unit.

Give the measured AUC(0-t) of Cc1cc(Nc2cc(N)ncn2)c(=O)n2c1C(=O)NC21CCC2(CC2)CC1 . 6420 ng·h/mL

====

assay: Plasma and brain concentrations, brain:plasma ratio in rats 2 hr after single PO 1 mg/kg (Example 5); assay type: in vivo; settings: male, Sprague-Dawley, rat, brain, po, 1 mg/kg, rats, brain, 2 hr after single PO 1 mg/kg; read-out: Mean Tissue
MEASURED PROPERTY: concentration at 2 hr (ng/g)
Form entry: value (ng/g) — number only.

Give the measured concentration at 2 hr of Cc1cc(Nc2cc(N)ncn2)c(=O)n2c1C(=O)NC21CCC2(CC2)CC1 . 47.2

====

assay: PK study in male Sprague Dawley rats, IV 1 mg/kg and PO 10 mg/kg (Example 4); assay type: in vivo; conditions: male, Sprague-Dawley, rat, in vivo, iv, 1 mg/kg, male SD rats, 1 mg/kg IV, mean (n = 3); read-out: AUCinf
MEASURED PROPERTY: AUC(0-inf) (ng·h/mL)
Form entry: value (ng·h/mL) — number only.

Give the measured AUC(0-inf) of Cc1cc(Nc2cc(N)ncn2)c(=O)n2c1C(=O)NC21CCC2(CC2)CC1 [4ET-03-053] . 51500

====

Assay: PK study in male Sprague-Dawley rats dosed once per day for five days, PO 10 mg/kg, 0.5% HPMC (Example 7)
Assay type: in vivo
Details: male, Sprague-Dawley, rat, in vivo, po, 10 mg/kg, Sprague-Dawley rats, day five of daily PO 10 mg/kg, 0.5% HPMC suspension; individual animals
Procedure: Example 7. PK study of 4ET-03-053 in male Sprague-Dawley rats dosed once per day for five days (P0; 10 mg/kg; 0.5%0HPMC aqueous suspension) Table 21 provides plasma and brain concentrations at 24 hr after the last dose of five daily P0 doses of 4ET-03-053.
MEASURED PROPERTY: AUC(0-t) (µg·h/mL)
Form entry: value (µg·h/mL) — number only.

Give the measured AUC(0-t) of Cc1cc(Nc2cc(N)ncn2)c(=O)n2c1C(=O)NC21CCC2(CC2)CC1 . 234

====

assay: Liver microsome stability; settings: mouse, liver microsomes
// map half-life onto a label; ranges lower level = under 2 h, middle level = from 2 h up to 4 h, upper level = 4 h and over

Class? Entry: Cc1cc(Nc2cc(N)ncn2)c(=O)n2c1C(=O)NC21CCC2(CCC2)CC1 [4ET-01-019] upper level

Class? Entry: Cc1cc(Nc2cc(N)ncn2)c(=O)n2c1C(=O)NC21CCC2(CCCC2)C1 (stereo not shown) [4ET-01-016] upper level

Class? Entry: Cc1cc(Nc2cc(NC(=O)C3(CN(C)C)CC3)ncn2)c(=O)n2c1C(=O)NC21CCC2(CC2)CC1 [4ET-03-081] lower level

Class? Entry: Cc1cc(Nc2cc(N)ncn2)c(=O)n2c1C(=O)NC21CCCC2(CC2)CC1 (racemic) [rac-4ET-01-027] lower level

Class? Entry: Cc1cc(Nc2cc(NC(=O)C3CC4(CNC4)C3)ncn2)c(=O)n2c1C(=O)NC21CCC2(CC2)CC1 [4ET-03-057] middle level

Class? Entry: Cc1cc(Nc2cc(N)ncn2)c(=O)n2c1C(=O)NC21CCC2(CC2)CC1 [4ET-03-053] middle level

Class? Entry: Cc1cc(Nc2cc(N)ncn2)c(=O)n2c1C(=O)NC21CC2(CC(F)(F)C2)C1 [4ET-01-017] upper level

Class? Entry: Cc1cc(Nc2cc(N)ncn2)c(=O)n2c1C(=O)NC21CC2(CCCCC2)C1 [4ET-01-020] lower level

Class? Entry: Cc1cc(Nc2cc(N)ncn2)c(=O)n2c1C(=O)NC21CCC2(CC1)CC2(F)F (stereo not shown) [4ET-03-068] upper level

Class? Entry: Cc1cc(Nc2cc(N)ncn2)c(=O)n2c1C(=O)NC21CC2(CCCC2)C1 [4ET-01-018] lower level

Class? Entry: Cc1cc(Nc2cc(NC(=O)C3CC3)ncn2)c(=O)n2c1C(=O)NC21CC2(CCC2)C1 [4ET-03-043] middle level

Class? Entry: Cc1cc(Nc2cc(NCCO)ncn2)c(=O)n2c1C(=O)NC21CCC2(CC2)CC1 [4ET-03-074] lower level

Class? Entry: Cc1cc(Nc2cc(NC(=O)C3CC3)ncn2)c(=O)n2c1C(=O)NC21CCC2(CC1)CNC2 [4ET-03-049] middle level

Class? Entry: Cc1cc(Nc2cc(N)ncn2)c(=O)n2c1C(=O)NC21C=CC2(CC2)CC1 (stereo not shown) [4ET-01-051] upper level

Class? Entry: Cc1cc(Nc2cc(N)ncn2)c(=O)n2c1C(=O)NC21CCCC2(CC2)C1 (stereo not shown) [4ET-01-042] lower level

Class? Entry: Cc1cc(Nc2cc(NC(=O)[C@H]3[C@@H]4CNC[C@@H]43)ncn2)c(=O)n2c1C(=O)NC21CCC2(CC2)CC1 [4ET-03-056] middle level

Reference for the values: patent US20250186436A1
